Hey, just so you know, these numbers are from ChEMBL document CHEMBL1201862.

# test_target: Ataxin-2 (Homo sapiens) (UniProt Q99700)
# Sequence (Q99700 whole entry): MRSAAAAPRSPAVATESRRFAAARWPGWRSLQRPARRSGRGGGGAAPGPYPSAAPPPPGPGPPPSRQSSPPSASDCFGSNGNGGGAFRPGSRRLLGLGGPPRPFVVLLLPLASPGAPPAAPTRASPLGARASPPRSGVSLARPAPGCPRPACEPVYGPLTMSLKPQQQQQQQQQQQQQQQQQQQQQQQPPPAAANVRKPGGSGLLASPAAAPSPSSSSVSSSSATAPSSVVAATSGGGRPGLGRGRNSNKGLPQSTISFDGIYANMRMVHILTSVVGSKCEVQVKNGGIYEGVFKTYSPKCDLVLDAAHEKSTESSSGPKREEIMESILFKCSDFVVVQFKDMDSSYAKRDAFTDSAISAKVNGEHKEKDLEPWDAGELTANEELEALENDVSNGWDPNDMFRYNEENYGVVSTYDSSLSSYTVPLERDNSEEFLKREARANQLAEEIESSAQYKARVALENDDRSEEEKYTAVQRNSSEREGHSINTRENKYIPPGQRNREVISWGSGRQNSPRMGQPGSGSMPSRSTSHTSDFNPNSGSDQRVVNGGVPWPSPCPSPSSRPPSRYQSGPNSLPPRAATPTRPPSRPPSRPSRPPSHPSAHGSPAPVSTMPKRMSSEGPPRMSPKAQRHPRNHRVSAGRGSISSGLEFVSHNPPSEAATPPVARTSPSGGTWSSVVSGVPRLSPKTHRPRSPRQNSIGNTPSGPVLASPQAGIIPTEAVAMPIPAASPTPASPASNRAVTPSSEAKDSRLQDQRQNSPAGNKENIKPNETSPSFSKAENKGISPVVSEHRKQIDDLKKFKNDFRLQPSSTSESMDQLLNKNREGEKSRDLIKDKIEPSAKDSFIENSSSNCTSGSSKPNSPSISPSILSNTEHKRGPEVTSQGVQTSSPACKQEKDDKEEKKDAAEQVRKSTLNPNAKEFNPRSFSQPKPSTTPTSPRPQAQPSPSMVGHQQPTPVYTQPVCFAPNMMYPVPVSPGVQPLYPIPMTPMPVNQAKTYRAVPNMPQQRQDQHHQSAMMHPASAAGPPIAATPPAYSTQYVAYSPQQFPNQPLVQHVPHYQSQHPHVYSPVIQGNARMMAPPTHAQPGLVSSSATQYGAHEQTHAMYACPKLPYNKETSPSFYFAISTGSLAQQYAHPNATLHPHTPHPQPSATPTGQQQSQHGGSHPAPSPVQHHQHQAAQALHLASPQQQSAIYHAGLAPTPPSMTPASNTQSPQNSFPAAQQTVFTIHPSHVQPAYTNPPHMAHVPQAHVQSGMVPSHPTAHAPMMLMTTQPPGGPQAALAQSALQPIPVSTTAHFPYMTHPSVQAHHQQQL
# assay_comment: qHTS for Inhibitors of ATXN expression.
# Type: functional
The campaign covered roughly 400,000 compounds. About 1,900 (0.47%) were called active. Another 14% or so got no clear call; they are omitted. No rule for the calls is given here. This is one part of a sample in which actives are shown more often than they occur.
Classes used: YES (active), NO (inactive)

| molecule | test_target | class_label |
| --- | --- | --- |
| CC(C)OC(=O)c1c(N)n(CC2CCCO2)c2nc3ccccc3nc12 (stereo not given) | Ataxin-2 (Homo sapiens) (UniProt Q99700) | NO |
| COc1ccc(Nc2cc(C)c3cc(NC(=O)c4ccccc4Cl)ccc3n2)cc1 | Ataxin-2 (Homo sapiens) (UniProt Q99700) | NO |
| Nc1c(C(=O)NCc2ccco2)c2nc3ccccc3nc2n1Cc1ccccc1 | Ataxin-2 (Homo sapiens) (UniProt Q99700) | NO |
| COCCCNC(=O)c1c(NC(=O)c2ccccc2Cl)n(Cc2ccccc2)c2nc3ccccc3nc12 | Ataxin-2 (Homo sapiens) (UniProt Q99700) | NO |
| COc1ccc(CC(N)c2csc(NC(=O)Nc3ccccc3Oc3ccccc3)n2)cc1 (stereo not given) | Ataxin-2 (Homo sapiens) (UniProt Q99700) | YES |
| O=C(NC1CCCCC1)N1Cc2cc(-c3ccccc3)ccc2-n2nncc2C1 | Ataxin-2 (Homo sapiens) (UniProt Q99700) | YES |
| O=C1C2(Cl)C3(Cl)C4(Cl)C(Cl)(Cl)C5(Cl)C3(Cl)C1(Cl)C5(Cl)C24Cl (stereo not given) | Ataxin-2 (Homo sapiens) (UniProt Q99700) | YES |
| COCCCn1c(N)c(C(=O)NCCC(C)C)c2nc3ccccc3nc21 | Ataxin-2 (Homo sapiens) (UniProt Q99700) | NO |
| CCc1ccc2c(c1)Sc1ccccc1CC2N1CCN(C)CC1 (stereo not given) | Ataxin-2 (Homo sapiens) (UniProt Q99700) | NO |
| CC(C)(C)n1nnnc1C(c1cccc2ccccc12)N1CCC2(CC1)C(=O)NCN2c1ccccc1 (stereo not given) | Ataxin-2 (Homo sapiens) (UniProt Q99700) | YES |
| COc1cccc(-n2c(/C=C/c3ccc(O)c(O)c3)nc3ccccc3c2=O)c1 | Ataxin-2 (Homo sapiens) (UniProt Q99700) | NO |
| O=c1ccc2cc(O[C@@H]3O[C@H](CO)[C@@H](O)[C@H](O)[C@H]3O)c(O)cc2o1 | Ataxin-2 (Homo sapiens) (UniProt Q99700) | NO |
| O=C(Cn1c(NCCCl)nc2ccccc21)c1ccc(Br)cc1 | Ataxin-2 (Homo sapiens) (UniProt Q99700) | NO |
| O=C1NC(=O)C(=Cc2ccc(SC3CCCCC3)o2)C(=O)N1 | Ataxin-2 (Homo sapiens) (UniProt Q99700) | YES |
| CCCCCC[C@H]1C(=O)O[C@H](C)[C@H](NC(=O)c2cccc(NC=O)c2O)C(=O)O[C@@H](C)[C@H]1OC(=O)CC(C)C | Ataxin-2 (Homo sapiens) (UniProt Q99700) | NO |
| Cc1ccc(CN2CCCC(C(=O)c3cccc(C(F)(F)F)c3)C2)o1 (stereo not given) | Ataxin-2 (Homo sapiens) (UniProt Q99700) | NO |
| CCC(C(=O)Nc1ccc(Cl)cc1)N1CCCC1=O (stereo not given) | Ataxin-2 (Homo sapiens) (UniProt Q99700) | NO |
| Clc1ccc(COC(Cn2ccnc2)c2ccc(Cl)cc2Cl)cc1 (stereo not given) | Ataxin-2 (Homo sapiens) (UniProt Q99700) | YES |
| COP(=O)(OC)c1nc(-c2cccc3ccccc23)oc1N1CCCCC1 | Ataxin-2 (Homo sapiens) (UniProt Q99700) | NO |
| O=C(CCN1CCN(c2ccccc2)CC1)c1ccc(Br)cc1 | Ataxin-2 (Homo sapiens) (UniProt Q99700) | YES |
| Cc1cc([N+](=O)[O-])c2ccccc2[n+]1[O-] | Ataxin-2 (Homo sapiens) (UniProt Q99700) | YES |
| CCC(C)NC(=O)c1c(N)n(CC2CCCO2)c2nc3ccccc3nc12 (stereo not given) | Ataxin-2 (Homo sapiens) (UniProt Q99700) | NO |
| COCCCn1c(N)c(C(=O)OC(C)COC)c2nc3ccccc3nc21 (stereo not given) | Ataxin-2 (Homo sapiens) (UniProt Q99700) | NO |
| CCCCn1c(NS(=O)(=O)c2ccccc2)c(C(=O)OCC)c2nc3ccccc3nc21 | Ataxin-2 (Homo sapiens) (UniProt Q99700) | NO |
| CCCCn1c(N)c(C(=O)NCCN2CCOCC2)c2nc3ccccc3nc21 | Ataxin-2 (Homo sapiens) (UniProt Q99700) | NO |
| O=C1NC(=O)C(=Cc2ccc(-c3ccccc3[N+](=O)[O-])o2)C(=O)N1 | Ataxin-2 (Homo sapiens) (UniProt Q99700) | NO |
| O=C(NCC1=C(c2ccc3ccccc3c2)C[C@@H]2CC[C@H]1N2Cc1ccco1)c1ccc([N+](=O)[O-])cc1 | Ataxin-2 (Homo sapiens) (UniProt Q99700) | YES |
| CN(Cc1ccc(OC(F)F)cc1)Cc1nc(O)c2cc(Br)cc(Br)c2n1 | Ataxin-2 (Homo sapiens) (UniProt Q99700) | NO |
| Fc1ccc(CNCCc2ccc3c(c2)OCO3)cc1 | Ataxin-2 (Homo sapiens) (UniProt Q99700) | NO |
| COc1ccc(-n2c(/C=C/c3ccc(O)c(OC)c3)nc3ccccc3c2=O)cc1 | Ataxin-2 (Homo sapiens) (UniProt Q99700) | NO |

* * *

# test_target: Ataxin-2 (Homo sapiens) (UniProt Q99700)
# assay_comment: qHTS for Inhibitors of ATXN expression.
# Format: functional
Screen size: about 400,000 compounds; about 1,900 (0.47%) were called active. About 14% were inconclusive and are not listed. No rule for the calls is given here. The entries come from a sample that favours actives as a whole.
Classes used: T (active), F (inactive)

| query_smiles | test_target | class_label |
| --- | --- | --- |
| CCOC(=O)[C@]12Cc3ccccc3[C@H]1N(C)C(=O)c1cc(OC)ccc12 | Ataxin-2 (Homo sapiens) (UniProt Q99700) | T |
| CCCCCn1c(=O)c(C(=O)NCc2ccccc2Cl)c(O)c2ccccc21 | Ataxin-2 (Homo sapiens) (UniProt Q99700) | F |
| CN1CCN(c2ccc([N+](=O)[O-])c3no[n+]([O-])c23)CC1 | Ataxin-2 (Homo sapiens) (UniProt Q99700) | T |
| O=c1cc(C(F)(F)F)c2cc3c4c(c2o1)CCCN4CCC3 | Ataxin-2 (Homo sapiens) (UniProt Q99700) | F |

* * *

# test_target: Ataxin-2 (Homo sapiens) (UniProt Q99700)
# assay_comment: qHTS for Inhibitors of ATXN expression.
# Assay type: functional
About 1,900 (0.47%) of roughly 400,000 compounds were called active. Not shown: some 14% with an inconclusive outcome. Many of the other results were omitted from the sample, so actives are more common in it than they were.

| compound | Potency |
| --- | --- |
| Cc1c(C)n(O)c2ccc3nonc3c12 | inactive |
| CC(=O)C12CC(C)=C(C)CC1CC1C3CCC4=CC(=O)CCC4(C)C3CCC12C (centres undefined) | inactive |
| CCOC(=O)c1c(NS(=O)(=O)c2ccccc2)n(CCCOC)c2nc3ccccc3nc12 | inactive |
| CCN1C(=O)C(=CNNC(=O)c2ccncc2)C(=O)N(CC)C1=S | inactive |
| CCC1(C)OC(c2ccccc2)=C/C(=C/C=C2C(=O)NC(=O)NC2=O)O1 (centres undefined) | inactive |
| COc1ccc(-n2c(/C=C/c3ccc(O)c(O)c3)nc3ccccc3c2=O)cc1 | inactive |
| COc1ccc(Nc2nc(N)nc(CSc3nc4ccccc4s3)n2)cc1 | 39.8 µM (active) |
| COc1ccc(-n2nnnc2C(c2ccccc2OC(F)(F)F)N2CCC3(CC2)C(=O)NCN3c2ccccc2)cc1 (centres undefined) | 39.8 µM (active) |
| CC(C)(C)C(=O)c1cn(Cc2ccccc2)c2ccccc12 | inactive |

* * *

# test_target: Ataxin-2 (Homo sapiens)
# assay_comment: qHTS for Inhibitors of ATXN expression.
# Type: functional
Screen size: about 400,000 compounds; about 1,900 (0.47%) were called active. Another 14% or so got no clear call; they are omitted. Many of the other results were omitted from the sample, so actives are more common in it than they were.
outcome_measure: Potency

| compound | outcome_measure | recorded_result |
| --- | --- | --- |
| CCOc1ccc(N/C=C2/C(=O)NC(=S)N(Cc3ccccc3)C2=O)cc1 | Potency | inactive |
| COc1cccc(C(c2nnnn2Cc2ccccc2)N2CCC3(CC2)C(=O)NCN3c2ccccc2)c1OC (stereo not given) | Potency | 39.8 µM (active) |
| CN(C)C(=O)Oc1ccc2nnc3ccnn3c2c1 | Potency | inactive |
| CCCCNC(=O)c1c(N)n(CCCOC)c2nc3ccccc3nc12 | Potency | inactive |
| O=C1NC(=O)N(CCc2ccc(F)cc2)C(=O)/C1=C/NNC(=O)c1ccncc1 | Potency | inactive |
| Cc1nc2ccc(N3CCN(C)CC3)cc2nc1C | Potency | inactive |
| Cc1cccc(C)c1-n1nnnc1C(c1cccs1)N1CCC2(CC1)C(=O)NCN2c1ccccc1 (stereo not given) | Potency | 31.6 µM (active) |
| Ic1ccccc1CNC1C2CCN(CC2)C1C(c1ccccc1)c1ccccc1 (stereo not given) | Potency | 15.8 µM (active) |
| COc1cc2c3c(c1OC)Oc1ccc(cc1)C[C@H]1c4c(cc(OC)c(OC)c4Oc4ccc(cc4)C[C@@H]3N(C)CC2)CCN1C | Potency | 15.8 µM (active) |
| CCOc1c(Cl)cc(CNCCc2c[nH]c3ccccc23)cc1OC | Potency | 20 µM (active) |
| COc1cccc(CNCCc2cccc(F)c2)c1OC | Potency | inactive |
| CCOC(=O)[C@]12Cc3cc(C)ccc3[C@H]1N(C(C)C)C(=O)c1ccccc12 | Potency | 11.2 µM (active) |
| O=C(c1ccc(-c2ccccc2)c(F)c1)C1CCCN(CCO)C1 (stereo not given) | Potency | inactive |
| CC(C)OCCCNC(=O)c1c(N)n(CC2CCCO2)c2nc3ccccc3nc12 (stereo not given) | Potency | inactive |
| Cc1c(CC(=O)N2C[C@H]3C[C@@H](C2)c2cccc(=O)n2C3)c(=O)oc2c(C)c(O)ccc12 | Potency | inactive |
| CCCCn1c(N)c(C(=O)OCCOC)c2nc3ccccc3nc21 | Potency | inactive |
| O=C1NC(=O)N(Cc2ccccc2)C(=O)/C1=C/NNC(=O)c1ccncc1 | Potency | inactive |
| COC(=O)Cn1cc(C=C2C(=O)N(C)C(=O)N(C)C2=O)c2ccccc21 | Potency | inactive |
| Cc1cc2c(C(F)(F)F)cc(=O)oc2c2c1NCCC2 | Potency | inactive |
| CC(=O)OC1C2(CC3N4C(=O)C5(CO)SSC4(CC31O)C(=O)N5C)OC(C)C(C)(C)C2=O (stereo not given) | Potency | 2.38 µM (active) |
| O=c1ccc2cc(O[C@@H]3O[C@@H](CO)[C@H](O)[C@@H](O)[C@@H]3O)c(O)cc2o1 | Potency | inactive |
| Cc1ccccc1NC(=NCCCN1CC1)Nc1ccccc1C | Potency | 9.47 µM (active) |
| CCCCn1nnnc1C(c1cccc(OC)c1OC)N1CCC2(CC1)C(=O)NCN2c1ccccc1 (stereo not given) | Potency | 39.8 µM (active) |
| CCn1c(=O)oc2cc(NC(=O)CCl)ccc21 | Potency | 37.7 µM (active) |
| CC1=NCCc2c1[nH]c1cc(O)ccc21 | Potency | inactive |
| O=C1CN=C(c2ccccc2)c2cc(Cl)ccc2N1Cc1ccc(Cl)cc1 | Potency | 28.2 µM (active) |
| Cc1cc(=O)oc2cc3c(cc12)CCCN3 | Potency | inactive |
| CCN(C(=O)COC(=O)c1cn(C)c2ccccc12)c1ccc(F)cc1 | Potency | inactive |
| CCOC(=O)c1c(N)n(Cc2ccco2)c2nc3ccccc3nc12 | Potency | inactive |
| Cc1cc(C=C2C(=O)NC(=S)NC2=O)c(C)n1-c1ccc2c(c1)OCO2 | Potency | 39.8 µM (active) |
